Measured fold change (FC), listed per entry for reference.
tested-target: Solute carrier family 2, facilitated glucose transporter member 4 (Rattus norvegicus)
Sequence (whole entry): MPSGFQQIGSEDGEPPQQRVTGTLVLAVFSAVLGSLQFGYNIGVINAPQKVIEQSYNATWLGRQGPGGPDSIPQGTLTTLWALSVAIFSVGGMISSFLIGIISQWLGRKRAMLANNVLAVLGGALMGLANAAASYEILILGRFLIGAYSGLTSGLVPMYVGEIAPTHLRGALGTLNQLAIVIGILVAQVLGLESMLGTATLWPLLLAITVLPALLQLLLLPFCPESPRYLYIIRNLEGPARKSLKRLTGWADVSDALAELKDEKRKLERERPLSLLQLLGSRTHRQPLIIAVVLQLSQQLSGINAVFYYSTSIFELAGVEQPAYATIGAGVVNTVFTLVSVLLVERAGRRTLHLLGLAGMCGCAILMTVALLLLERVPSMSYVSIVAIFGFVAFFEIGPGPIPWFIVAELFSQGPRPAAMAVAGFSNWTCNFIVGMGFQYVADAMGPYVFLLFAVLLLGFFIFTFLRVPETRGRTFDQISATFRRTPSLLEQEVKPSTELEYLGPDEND
assay-notes: Modulation of GLUT4 translocation in rat L6-GLUT4myc skeletal muscle cells assessed as increase in surface GLUT4myc level by measuring fold stimulation at 10 uM measured after 16 hrs by O-phenylenediamine assay relative to control
Type: cell-based
measurement-parameters: filed as modulator
Please state the value as a number alone, without comment.

COc1ccc(OC)c(-n2cc(CNC(=O)c3cc(Cc4n[nH]c(=O)c5ccccc45)ccc3F)nn2)c1 | 1.29
O=C(NCc1cn(-c2ccccc2F)nn1)c1cc(Cc2n[nH]c(=O)c3ccccc23)ccc1F | 0.86
COc1cccc(Cl)c1-n1cc(CNC(=O)c2cc(Cc3n[nH]c(=O)c4ccccc34)ccc2F)nn1 | 1.14

Here is another compound to look at.
fold change (FC) reported for this compound O=C(NCc1cn(-c2ccc(Cl)cc2)nn1)c1ccc(Cc2n[nH]c(=O)c3ccccc23)cc1 : 1.09
